Please go through the items and note down their IC50, in vitro kinase assay PKB.
# tested target: protein kinase B (PKB)
# assay summary: cell-based or functional assay
Square brackets hold non-standard residues; d marks the D form. * marks the point of attachment. Cholesteryloxycarbonyl = CC(C)CCC[C@@H](C)[C@H]1CC[C@H]2[C@@H]3CC=C4C[C@@H](OC(=O)*)CC[C@]4(C)[C@H]3CC[C@]12C; hLeu = CC(C)CC[C@H](N)C(=O)O; Orn = NCCC[C@H](N)C(=O)O; Nva = CCC[C@H](N)C(=O)O; Dap = NC[C@H](N)C(=O)O
One number for each entry, in µM.

In the examples that follow, each entry is paired with its recorded IC50, in vitro kinase assay PKB.
{"binder": "Cholesteryloxycarbonyl-RPH[Nva]Y[Dap][hLeu]-NH2 (SMILES CCC[C@H](NC(=O)[C@H](Cc1c[nH]cn1)NC(=O)[C@@H]1CCCN1C(=O)[C@H](CCCNC(=N)N)NC(=O)O[C@H]1CC[C@@]2(C)C(=CC[C@H]3[C@@H]4CC[C@H]([C@H](C)CCCC(C)C)[C@@]4(C)CC[C@@H]32)C1)C(=O)N[C@@H](Cc1ccc(O)cc1)C(=O)N[C@@H](CN)C(=O)N[C@@H](CCC(C)C)C(N)=O) [PTR 6376]", "quantity": "IC50, in vitro kinase assay PKB", "units label": "µM", "meas value": 2}
{"binder": "Cholesteryloxycarbonyl-[dK][dK][dK][Orn]PR[Nva]Y[Dap][hLeu]-NH2 (SMILES CCC[C@H](NC(=O)[C@H](CCCNC(=N)N)NC(=O)[C@@H]1CCCN1C(=O)[C@H](CCCN)NC(=O)[C@@H](CCCCN)NC(=O)[C@@H](CCCCN)NC(=O)[C@@H](CCCCN)NC(=O)O[C@H]1CC[C@@]2(C)C(=CC[C@H]3[C@@H]4CC[C@H]([C@H](C)CCCC(C)C)[C@@]4(C)CC[C@@H]32)C1)C(=O)N[C@@H](Cc1ccc(O)cc1)C(=O)N[C@@H](CN)C(=O)N[C@@H](CCC(C)C)C(N)=O) [PTR 6398]", "quantity": "IC50, in vitro kinase assay PKB", "units label": "µM", "meas value": 0.3}

Please turn your attention to the following entry.
Recorded result, {Cholesteryl‑O‑CO‑(CH2)2‑CO}-[dK][dK][dK]RPR[Nva]Y[Dap][hLeu]-NH2 [PTR 6356] , IC50, in vitro kinase assay PKB: 0.17

All values here come from patent US20070078092A1.
